# Read-out: Interleukin-8 (IL8), CXCL8 (gene 3576)
# METHOD SUMMARY: BSK_SAg_IL8: BioMAP Diversity Plus: SAg Assay for Interleukin-8 (IL8) Biomarker Activity (AID 2283094)
# CONDITION: primary human HUVEC with PBMC; actives raise or lower the signal
Active and inactive are the calls of the source. Rule for the calls: active = hit-call score of the fitted dose curve at least 0.9, where 1 is the maximum; inactive = score below 0.9.
Hi there, use one of these labels in your reply, thanks! active, inactive

Solved cases below.
• O=C1NS(=O)(=O)c2ccccc21 = inactive
• Clc1ccc(Nc2nnc(Cc3ccncc3)c3ccccc23)cc1 = inactive
• O=C(NCc1ncc(C(F)(F)F)cc1Cl)c1c(Cl)cccc1Cl = inactive
• CCCCC(CC)C(=O)O (configuration not stated) = inactive
• O=C1c2ccc(O)c(O)c2C(=O)c2c(O)ccc(O)c21 = inactive
• CCCCCCCCCCCCCCCCCC[N+](C)(C)Cc1ccccc1 = active

-- ask What was the test verdict on `OCC(CO)(CBr)CBr` ?
-- reply inactive

-- ask What was the test verdict on `O=C(O)CCC(F)(F)C(F)(F)C(F)(F)C(F)(F)C(F)(F)F` ?
-- reply inactive

Data origin, for the record: PubChem BioAssay (EPA / NIEHS)
